# Test system: MS2 coat protein
# method notes: apparent KD of MS2 coat protein; designed switch direction (-1 OFF switch, 1 ON switch): -1; higher = weaker reporter binding
# test conditions: Eterna round: R95; input ligand: none
The recorded apparent KD of MS2 coat protein of each item maps onto one of these classes: one: < 50 nM; two: ≥ 50 nM and < 100 nM; three: ≥ 100 nM

Past entries and their recorded results:
biosequence | label value
AGUACUAACACGGCUGUGUUAGUACAAUAAGCUUGUGAAACAUGAGGAUCACCCAUGUCCUCAUAAGCUCGUCUUAU [salish99_TOv2_r3_078] (puzzle: Sensor v3, turn-off variant 2) | one
AAUAAUAAGGAGGAUAUCGUAACCGAAAGGUUACGAGAAGGCCUAACAUGAGGAUCACCCAUGUUCCUCAAUAA [Mat - Exclusion 6 - Eli Mod - D56] (puzzle: Exclusion 6) | three

Sort AUCGUGAAGAAGGAUAUGGGCCCGGUAAUACGACUAGAAGGUCUGACAUGAGGAUCACCCAUGUGAUACCAAAA [Arorquis] (puzzle: Exclusion 6) into one of the categories.
one

Kindly identify the class of CUGGUCCGAGGAUAUAUUAUGUGAUACAUGAGGAUCACCCAUGUAAUAUGAUGGAAGUAAAUAGAAGGCGGACUAG [Mat - Exclusion 5 - JL mod - D46] (puzzle: Exclusion 5) .
two

// data source = the supplement of paper PMC9170038
